Cited source: ChEMBL document CHEMBL3425446

tested on: Klebsiella pneumoniae; assay: Antibacterial activity against Klebsiella pneumoniae assessed as compound concentration required to complete growth inhibition at 8 hrs by tube dilution method; format: functional
measurement_name: MIC (mg/L)

[
  {
    "compound": "CN[C@@H]1[C@H](O[C@H]2[C@H](O[C@H]3[C@H](O)[C@@H](O)[C@H](N=C(N)N)[C@@H](O)[C@@H]3N=C(N)N)O[C@@H](C)[C@]2(O)C=O)O[C@@H](CO)[C@H](O)[C@H]1O.CN[C@@H]1[C@H](O[C@H]2[C@H](O[C@H]3[C@H](O)[C@@H](O)[C@H](N=C(N)N)[C@@H](O)[C@@H]3N=C(N)N)O[C@@H](C)[C@]2(O)C=O)O[C@@H](CO)[C@H](O)[C@H]1O.O=S(=O)(O)O.O=S(=O)(O)O.O=S(=O)(O)O [STREPTOMYCIN SULFATE]",
    "measurement_name": "MIC",
    "observed_measurement": 6.25
  },
  {
    "compound": "C=C(C(/C=C/C(C)(O)COC(C)=O)OC(C)=O)[C@@H]1C[C@@H](O)[C@@]2(C)[C@@H]1[C@@H]1[C@H](C)CC[C@@H]12 (mixture of isomers)",
    "measurement_name": "MIC",
    "observed_measurement": 200
  },
  {
    "compound": "C=C(C(=O)/C=C/C(C)=O)[C@@H]1CC(=O)[C@@]2(C)[C@@H]1[C@@H]1[C@H](C)CC[C@@H]12",
    "measurement_name": "MIC",
    "observed_measurement": 50
  }
]

[I] C=C(C(=O)/C=C/C(C)(O)COC(C)=O)[C@@H]1C[C@@H](O)[C@@]2(C)[C@@H]1[C@@H]1[C@H](C)CC[C@@H]12 (stereo partly drawn)
[II] C=C(C)C(O)CCC(=C)[C@@H]1C[C@@H](OC(C)=O)[C@@]2(C)[C@@H]1[C@@H]1[C@H](C)CC[C@@H]12 (mixture of isomers)
[III] C=C(CC(C=C(C)C)OC(C)=O)[C@@H]1C[C@@H](O)[C@@]2(C)[C@@H]1[C@@H]1[C@H](C)CC[C@@H]12 (stereo partly drawn)
Could you please order the items by MIC, going from the lowest number to the highest? Reply with the labels, ordered as the question asks.
II, I, III
(II: 50 mg/L, I: 100 mg/L, III: 200 mg/L)

[I] C=C(C(O)/C=C/C(C)=O)[C@@H]1C[C@@H](O)[C@@]2(C)[C@@H]1[C@@H]1[C@H](C)CC[C@@H]12 (stereo partly drawn)
[II] C=C(CC(C=C(C)C)OC(C)=O)[C@@H]1C[C@@H](OC(C)=O)[C@@]2(C)[C@@H]1[C@@H]1[C@H](C)CC[C@@H]12 (mixture of isomers)
Between the entries labeled I and II , whose measured MIC is lower? // output: label of the selected item
I

[P] C=C(C[C@@H](O)C=C(C)C)[C@@H]1C[C@@H](O)[C@@]2(C)[C@@H]1[C@@H]1[C@H](C)CC[C@@H]12
[Q] C=C(C(O)/C=C/C(C)(O)COC(C)=O)[C@@H]1C[C@@H](O)[C@@]2(C)[C@@H]1[C@@H]1[C@H](C)CC[C@@H]12 (mixture of isomers)
// select label with min value of measured MIC from [ P , Q ] # reply format: chosen label
P
(P: 50 mg/L, Q: 200 mg/L)
